tgt: T1, Sulfotyr fibrinogen γ peptide (not fully specified; Y8 and Y12 sulfated (SO3); C-terminal biotin)
T1 construct: also called Fibrinogen gamma peptide; human sulfotyrosinylated fibrinogen peptide
T1 peptide: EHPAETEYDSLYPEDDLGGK
procedure-text: ELISA, 50 nM mAb
reported-property: binding normalized to PSGL-1

Input: Fill in: binding normalized to PSGL-1 of 05D01 (antibody, V domains shown) VH: QVTLRESGGALVQPGGSLRLSCAASGFPLRSNAMTWVRQAPGKGLEWVSDIRGNGASTYYADSVKGRFTISRDDSNNILFLQMNSLRAEDTAVYYCVGHGSSSYWGQGTLVTVSS VL: DVVMTQSPLSLPVTLGQPASISCRSSQSLVYRDGNIYLNWFQQRPGQSPRRLIYKVSNRDSGVPDRFSGSGSGTDFTLKISRVEAEDVGVYYCMQLTHWPPGFAQGTKLEIK is ___
Output: 0.89

Next:
Input: binding normalized to PSGL-1 for 18F02 (antibody, V domains shown, From mouse immunisation; only variable domains given) VH: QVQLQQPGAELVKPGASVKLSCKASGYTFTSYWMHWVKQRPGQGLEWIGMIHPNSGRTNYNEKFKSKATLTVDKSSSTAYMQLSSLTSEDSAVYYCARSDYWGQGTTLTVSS VL: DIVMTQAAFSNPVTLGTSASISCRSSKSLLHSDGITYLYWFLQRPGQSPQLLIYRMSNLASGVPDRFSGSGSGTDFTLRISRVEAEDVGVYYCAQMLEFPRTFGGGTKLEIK ?
Output: 0.21

Input: Bench note: what binding normalized to PSGL-1 did 09A02 (antibody, IgG4, V domains shown) VH: EVQLVQSGGGLVKPGGSLRLSCAASGFTFRTAWMSWVRQAPGKGLEWVGRMKSKNDGGTTDYAAPVKGRFTISRDDSRDTVYLQMNSLKTEDTGVYYCATYAAGATVPWGQGTLVTVSS VL: DIVMTQTPLSAPVTLGQPASISCRSSRSLLQRNGYNYVDWYQQKAGNPPRLLIYLGSRRASGVPDRFSGSGSDKDFTLKISRVEADDVGFYFCKQSLQAPPTFGGGTKIEIT show?
Output: 1.06

Input: Endpoint output: binding normalized to PSGL-1 of 09B09 (antibody, IgG4, V domains shown) VH: EVKLLESGGGLVQPGGSLRLSCAASGITFSTYAMMWVRQAPGKGLEWVSGISGSGASRYYADSVKGRFTISRDNSKNMLYLQMNSLRAEDTAVYYCAKKVLGRRKQYFDDWGQGTLVTVSS VL: DIVMTQSPLSLPVTPGEPASISCRSSQSLLHSNGYNYLDWYLQRPGQSPQLLIYLGSHRASGVPDRFSGSGSGTEHTLKITTVAAEDVGVYYCMQALQSPPTFGQGTRLDIK . Value?
Output: 0.3
